Target: Mycobacterium tuberculosis Rv0183 (monoglyceride lipase) (Mycobacterium tuberculosis)
Sequence (O07427 whole entry, looked up): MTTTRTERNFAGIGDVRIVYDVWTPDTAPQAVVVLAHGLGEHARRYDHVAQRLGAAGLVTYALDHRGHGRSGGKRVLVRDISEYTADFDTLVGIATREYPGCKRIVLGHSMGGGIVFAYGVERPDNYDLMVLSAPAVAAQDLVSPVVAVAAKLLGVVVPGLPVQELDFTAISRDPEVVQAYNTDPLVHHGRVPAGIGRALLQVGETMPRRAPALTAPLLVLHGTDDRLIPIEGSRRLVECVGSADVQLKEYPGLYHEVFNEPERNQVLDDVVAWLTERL
Assay type: biochemical
Measured DI (Diastereoselectivity Index between trans-(α) and cis-(β) isomers), Rv0183, listed per entry for reference.
# number only, unit % dropped from output

| Compound | Measurement Unit | Reported Measurement |
| --- | --- | --- |
| CCCCCC1CCP(=O)(OC)OC(C)=C1C(=O)OC (racemic) [6(β)] | % | 16.7 |

Quote DI (Diastereoselectivity Index between trans-(α) and cis-(β) isomers), Rv0183 with test system Mycobacterium tuberculosis Rv0183 (monoglyceride lipase) (Mycobacterium tuberculosis) for CCCCCCCCCCCCC1CCP(=O)(OC)OC(C)=C1C(=O)OC (racemic) [8(β)]
36.3

Quote DI (Diastereoselectivity Index between trans-(α) and cis-(β) isomers), Rv0183 with test system Mycobacterium tuberculosis Rv0183 (monoglyceride lipase) (Mycobacterium tuberculosis) for CCCCCCCCCCC1CCP(=O)(OC)OC(C)=C1C(=O)OC (racemic) [7(α)]
51.9

Quote DI (Diastereoselectivity Index between trans-(α) and cis-(β) isomers), Rv0183 with test system Mycobacterium tuberculosis Rv0183 (monoglyceride lipase) (Mycobacterium tuberculosis) for CCCCCC1CCP(=O)(OC)OC(C)=C1C(=O)OC (racemic) [6(α)]
16.7

Quote DI (Diastereoselectivity Index between trans-(α) and cis-(β) isomers), Rv0183 with test system Mycobacterium tuberculosis Rv0183 (monoglyceride lipase) (Mycobacterium tuberculosis) for CCCCCCCCCCCCC1CCP(=O)(OC)OC(C)=C1C(=O)OC (racemic) [8(α)]
36.3

Quote DI (Diastereoselectivity Index between trans-(α) and cis-(β) isomers), Rv0183 with test system Mycobacterium tuberculosis Rv0183 (monoglyceride lipase) (Mycobacterium tuberculosis) for CCCCCCCCCCC1CCP(=O)(OC)OC(C)=C1C(=O)OC (racemic) [Compound 7(β)]
51.9

* * *

Measured DI (Diastereoselectivity Index between trans-(α) and cis-(β) isomers), Cutinase, listed per entry for reference.
Target: UniProtKB P00590
Sequence (P00590 17-230): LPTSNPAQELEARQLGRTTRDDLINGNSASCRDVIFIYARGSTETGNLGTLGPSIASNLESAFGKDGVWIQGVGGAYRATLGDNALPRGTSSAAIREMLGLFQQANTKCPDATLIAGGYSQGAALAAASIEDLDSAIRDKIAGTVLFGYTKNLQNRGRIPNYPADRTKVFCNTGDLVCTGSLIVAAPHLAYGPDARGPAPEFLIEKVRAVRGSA
Type: biochemical, Fusarium solani pisi
# number only, unit % dropped from output

Please list DI (Diastereoselectivity Index between trans-(α) and cis-(β) isomers), Cutinase recorded for the molecule CCCCCC1CCP(=O)(OC)OC(C)=C1C(=O)OC (racemic) [6(β)]
89.7

Please list DI (Diastereoselectivity Index between trans-(α) and cis-(β) isomers), Cutinase recorded for the molecule CCCCCCCCCCCCC1CCP(=O)(OC)OC(C)=C1C(=O)OC (racemic) [8(β)]
29.0

Please list DI (Diastereoselectivity Index between trans-(α) and cis-(β) isomers), Cutinase recorded for the molecule CCCCCCCCCCCCC1CCP(=O)(OC)OC(C)=C1C(=O)OC (racemic) [8(α)]
29.0

Please list DI (Diastereoselectivity Index between trans-(α) and cis-(β) isomers), Cutinase recorded for the molecule CCCCCCCCCCCCCCCCC1CCP(=O)(OC)OC(C)=C1C(=O)OC (racemic) [9(α)]
27.2

Please list DI (Diastereoselectivity Index between trans-(α) and cis-(β) isomers), Cutinase recorded for the molecule CCCCCCCCCCCCCCCCCCC1CCP(=O)(OC)OC(C)=C1C(=O)OC (racemic) [10(β)]
72.1

Please list DI (Diastereoselectivity Index between trans-(α) and cis-(β) isomers), Cutinase recorded for the molecule CCCCCCCCCCCCCCCCCCC1CCP(=O)(OC)OC(C)=C1C(=O)OC (racemic) [10(α)]
72.1

Please list DI (Diastereoselectivity Index between trans-(α) and cis-(β) isomers), Cutinase recorded for the molecule CCCCCC1CCP(=O)(OC)OC(C)=C1C(=O)OC (racemic) [6(α)]
89.7

Please list DI (Diastereoselectivity Index between trans-(α) and cis-(β) isomers), Cutinase recorded for the molecule CCCCCCCCCCCCCCCCC1CCP(=O)(OC)OC(C)=C1C(=O)OC (racemic) [9(β)]
27.2

Please list DI (Diastereoselectivity Index between trans-(α) and cis-(β) isomers), Cutinase recorded for the molecule CCCCCCCCCCC1CCP(=O)(OC)OC(C)=C1C(=O)OC (racemic) [7(α)]
76.2

Please list DI (Diastereoselectivity Index between trans-(α) and cis-(β) isomers), Cutinase recorded for the molecule CCCCCCCCCCC1CCP(=O)(OC)OC(C)=C1C(=O)OC (racemic) [Compound 7(β)]
76.2
